target: PKC-α (Homo sapiens, UniProt P17252); assay: ELISA-based competitive binding assay with purified PKC isoform; set-up: key: —: no detectable affinity; Low to very low affinity at 10X or 20X or both PRE concentrations in at least one cell line in the cell extract assay; Low affinity in purified isoform assay.; Moderate affinity at 10X or 20X or both PRE concentrations in at least one cell line in the cell extract assay.; High affinity at 10X or 20X or both PRE concentrations in at least one cell line in the cell extract assay; High affinity in purified isoform assay; details: Purified isoform; Table 20
measurement-name: Affinity for PKC isoform α

Below: 10 substances and their reported Affinity for PKC isoform α.
>>> result("Ac-RDAQNLI-NH2 [PRE 13]")
"—"
>>> result("Ac-ISIGILQNADK-NH2 [PRE 7]")
"L"
>>> result("Ac-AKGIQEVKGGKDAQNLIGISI-NH2 [PRE 5]")
"—"
>>> result("ILEDKGGDAQNLIGISI [PRE 8]")
"—"
>>> result("Ac-ISIGILNQADK-NH2 [PRE 10]")
"—"
>>> result("Ac-KDANQLIGISI-NH2 [PRE 6]")
"—"
>>> result("Ac-KDAQNLIGISI-NH2 [PRE 4, Ac-KDAQNLIGISI-NH2]")
"H"
>>> result("Ac-KDAQNLI-NH2 [PRE 12]")
"—"
>>> result("Ac-RDAQNLIGISI-NH2 [PRE 11]")
"L"
>>> result("Ac-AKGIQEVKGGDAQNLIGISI-NH2 [PRE 3]")
"H"

Exercise: For the substance RRKKGGKDFVVKR [PRE 1] , report Affinity for PKC isoform α.
Key: —

---

assay: In vitro toxicity test (fluorimetric DNA assay, Hoechst); format: cell-based, human; details: human, IMR-32 neuroblastoma cells; 500 μg/ml; 72 h; Table 13; read-out: % survival
measurement-name: viability at 72 h, 500 µg/mL (%)
A number alone suffices; assume %.

Exercise: For the substance Ac-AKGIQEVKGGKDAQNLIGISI-NH2 [PRE 5] , report viability at 72 h, 500 µg/mL.
Key: 84

---

Known viability at 48 h, 2500 µg/mL of a selection of substances
test: In vitro toxicity test (fluorimetric DNA assay, Hoechst); format: cell-based, human; conditions: human, IMR-32 neuroblastoma cells; 2.5 mg/ml; 48 h; with pinocytic endocytosis reagent; read-out: % survival
A number alone suffices; assume %.

>>> recorded_number("Ac-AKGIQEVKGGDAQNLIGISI-NH2 [PRE 3]")
150

Query substance follows.
Exercise: For the substance Ac-KDAQNLIGISI-NH2 [PRE 4, Ac-KDAQNLIGISI-NH2] , report viability at 48 h, 2500 µg/mL.
Key: 99

---

test: In vitro toxicity test (fluorimetric DNA assay, Hoechst); assay type: cell-based, human; conditions: human, IMR-32 neuroblastoma cells; 62.5 μg/ml; 72 h; Table 13; read-out: % survival
measurement-name: viability at 72 h, 62.5 µg/mL (%)
A number alone suffices; assume %.

Exercise: For the substance Ac-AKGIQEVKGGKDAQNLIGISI-NH2 [PRE 5] , report viability at 72 h, 62.5 µg/mL.
Key: 100

---

test: In vitro toxicity test (fluorimetric DNA assay, Hoechst); type: cell-based, human; details: human, IMR-32 neuroblastoma cells; 250 μg/ml; 24 h; Table 13; read-out: % survival
measurement-name: viability at 24 h, 250 µg/mL (%)
A number alone suffices; assume %.

Exercise: For the substance Ac-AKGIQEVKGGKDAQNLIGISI-NH2 [PRE 5] , report viability at 24 h, 250 µg/mL.
Key: 88
